Experiment: Pharmacokinetic Assay, single oral dose 5 mg/kg (Table 12)
Type: in vivo
Conditions: mouse; plasma concentration, C57 female mice, single oral dose 5 mg/kg, 4 h
Procedure: Adult C57 female mice were received to single-dose of the test compounds with 15% DMSO, 10% Kolliphor^@HS 15 and 75% saline as excipients, the mice (n=3) were giving oral administration (intragastric administration) with the compounds at a dose of 5 mg/kg. […] The plasma was transferred into centrifuge tubes, and stored at −20° C. until being analyzed. Concentrations of test compounds in the plasma samples were analyzed with liquid chromatography-tandem mass spectrometry (LC-MS/MS). […]
reported.metric: concentration at 4 h (ng/mL)
Expressed in ng/mL, but write only the number.

Some compounds with known concentration at 4 h results, for comparison:
compound | concentration at 4 h [ng/mL]
Cc1c(-c2nc3cc(CN4CCC[C@H]4C(=O)O)c(OC(F)F)cc3o2)cccc1-c1cccc(-c2nc3cc(CN(C)CC#N)cc(C#N)c3o2)c1C [Example 136] | 545
COc1nc(-c2cccc(-c3cccc(-c4nc5cc(CN6CCC[C@H]6C(=O)O)c(OC(F)F)cc5o4)c3C)c2C)cnc1CN1CC[C@@H](C)C1 [Example 286] | 52.2
Cc1c(-c2nc3cc(CN4CC(C)C4)c(OC(F)F)cc3o2)cccc1-c1cccc(-c2nc3cc(CN4CCC[C@H]4C(=O)O)c(OC(F)F)cc3o2)c1C [Example 56] | 155

Query block: Need concentration at 4 h of Cc1c(-c2ccc3[nH]c(N)nc3c2)cccc1-c1cccc(-c2nc3cc(CN4CCC[C@H]4C(=O)O)c(OC(F)F)cc3o2)c1C [Example 293] , thanks.
Result block: 3.57

Query block: Need concentration at 4 h of Cc1c(-c2nc3cc(CN4CCCC4)c(OC(F)F)cc3o2)cccc1-c1cccc(-c2nc3cc(CN4CCC[C@H]4C(=O)O)c(OC(F)F)cc3o2)c1C [Example 5] , thanks.
Result block: 61.2

Query block: Need concentration at 4 h of C#CC1(O)CN(Cc2cc(C#N)c3oc(-c4cccc(-c5cccc(-c6nc7cc(CN8CCC[C@H]8C(=O)O)c(OC(F)F)cc7o6)c5C)c4C)nc3c2)C1 [Example 144] , thanks.
Result block: 222

* * *

Experiment: Pharmacokinetic Assay, single oral dose 5 mg/kg (Table 12)
Assay type: in vivo
Conditions: mouse; plasma concentration, C57 female mice, single oral dose 5 mg/kg, 2 h
reported.metric: concentration at 2 h (ng/mL)
Expressed in ng/mL, but write only the number.

Some molecules with known concentration at 2 h results, for comparison:
record.smiles | measured.result
Cc1c(-c2nc3cc(CN4CC=CC4)c(OC(F)F)cc3o2)cccc1-c1cccc(-c2nc3cc(CN4CCC[C@H]4C(=O)O)c(OC(F)F)cc3o2)c1C | 151
Cc1c(-c2nc3c(o2)CCN(CC(F)F)C3)cccc1-c1cccc(-c2nc3cc(CN4CCC[C@H]4C(=O)O)c(OC(F)F)cc3o2)c1C | 792

Attention now turns to another entry.
Query block: Need concentration at 2 h of Cc1c(-c2ccc(CN3CC[C@H](COCc4ccccc4)C3)c(F)c2)cccc1-c1cccc(-c2nc3cc(CN4CCC[C@H]4C(=O)O)c(OC(F)F)cc3o2)c1C , thanks.
Result block: 2870

* * *

Assay: Pharmacokinetic Assay, single oral dose 100 mg/kg (Table 11)
Format: in vivo
Details: mouse, C57 female mice, oral (intragastric), plasma
reported.metric: Tmax (h)
Expressed in h, but write only the number.

Some compounds with known Tmax results, for comparison:
compound | result.unit | measured.result
Cc1c(-c2nc3cc(CN4CCC[C@H]4C(=O)O)c(OC(F)F)cc3o2)cccc1-c1cccc(-c2nc3cc(CN4CC(C)(C)C4)cc(C(F)(F)F)c3o2)c1C [Example 93] | h | 4
Cc1c(-c2nc3cc(CN4CCCC4)ccc3o2)cccc1-c1cccc(-c2nc3cc(CN4CCC[C@H]4C(=O)O)c(OC(F)F)cc3o2)c1C [Example 98] | h | 1
Cc1c(Nc2nccc3cc(CN4CCC(O)C4)cnc23)cccc1-c1cccc(-c2nc3cc(CN4CCC[C@H]4C(=O)O)c(OC(F)F)cc3o2)c1C (stereo partly shown) [Example 175] | h | 2
Cc1c(-c2nc3cc(CN4CCC(O)C4)c(OC(F)F)cc3o2)cccc1-c1cccc(-c2nc3cc(CN4CCC[C@H]4C(=O)O)c(OC(F)F)cc3o2)c1C (stereo partly shown) [Example 14] | h | 1
Cc1c(-c2nc3cc(CN4CCC[C@H]4C(=O)O)c(OC(F)F)cc3o2)cccc1-c1cccc(-c2nc3cc(CN4CC(C)(C)C4)cc(C#N)c3o2)c1C [Example 103] | h | 4
Cc1c(-c2nc3cc(CN4CCC4C)c(OC(F)F)cc3o2)cccc1-c1cccc(-c2nc3cc(CN4CCC[C@H]4C(=O)O)c(OC(F)F)cc3o2)c1C (stereo partly shown) [Example 36] | h | 1
Cc1c(-c2nc3c(o2)CCN(C)C3)cccc1-c1cccc(-c2nc3cc(CN4CCC[C@H]4C(=O)O)c(OC(F)F)cc3o2)c1C [Example 314] | h | 2
Cc1c(-c2nc3cc(CN4CC(C)(C)C4)c(OC(F)F)cc3o2)cccc1-c1cccc(-c2nc3cc(CN4CCC[C@H]4C(=O)O)c(OC(F)F)cc3o2)c1C [Example 34] | h | 4
Cc1c(-c2nc3cc(CN4CCC[C@H]4C(=O)O)c(OC(F)F)cc3o2)cccc1-c1cccc(-c2nc3cc(CN4CCCC4(C)C)c(OC(F)F)cc3o2)c1C [Example 62] | h | 4

Attention now turns to another entry.
Query block: Need Tmax of Cc1c(-c2nc3cc(CNC[C@H]4CCCO4)c(OC(F)F)cc3o2)cccc1-c1cccc(-c2nc3cc(CN4CCC[C@H]4C(=O)O)c(OC(F)F)cc3o2)c1C [Example 29] , thanks.
Result block: 1
